protocol: Plasma concentration in Sprague-Dawley rat at 2.5 umol/kg, sc after 1 hr
Format: ADME, organism-based
condition_set: read-out: Drug uptake
Record form. Attribute: concentration at 1 h. Fill in for each entry.

// batch mode: one concentration at 1 h value per listed entry
1. COc1ccccc1C(CNS(=O)(=O)c1ccc(C(F)(F)F)cc1)N1CCCCCC1 (stereo not drawn)
2. COc1ccccc1C(CNS(=O)(=O)c1ccc(F)c(Cl)c1)N1CCCCCC1 (stereo not drawn)
3. COc1ccccc1C(CNS(=O)(=O)c1ccc(Cl)cc1)N1CCCCCC1 (stereo not drawn)

1. 72 nM
2. 105 nM
3. 103 nM

---

protocol: Drug level in brain to plasma in Sprague-Dawley rat at 2.5 umol/kg, sc after 1 hr
Type: ADME, organism-based
value_type: Kp at 1 h
One number for each entry.

Batch lookup, Kp at 1 h per entry.
1. COc1ccccc1C(CNS(=O)(=O)c1ccc(Cl)cc1)N1CCCCCC1 (stereo not drawn)
2. COc1ccccc1C(CNS(=O)(=O)c1ccc(F)c(Cl)c1)N1CCCCCC1 (stereo not drawn)
3. COc1ccccc1C(CNS(=O)(=O)c1ccc(C(F)(F)F)cc1)N1CCCCCC1 (stereo not drawn)

1. 1.9
2. 1.6
3. 2.1
